Listed next: entries and their corresponding AC50.
# Experimental System: Histamine H3 receptor (Homo sapiens, UniProt Q9Y5N1); also: assay procedure not described here
# Sequence (Q9Y5N1 whole entry): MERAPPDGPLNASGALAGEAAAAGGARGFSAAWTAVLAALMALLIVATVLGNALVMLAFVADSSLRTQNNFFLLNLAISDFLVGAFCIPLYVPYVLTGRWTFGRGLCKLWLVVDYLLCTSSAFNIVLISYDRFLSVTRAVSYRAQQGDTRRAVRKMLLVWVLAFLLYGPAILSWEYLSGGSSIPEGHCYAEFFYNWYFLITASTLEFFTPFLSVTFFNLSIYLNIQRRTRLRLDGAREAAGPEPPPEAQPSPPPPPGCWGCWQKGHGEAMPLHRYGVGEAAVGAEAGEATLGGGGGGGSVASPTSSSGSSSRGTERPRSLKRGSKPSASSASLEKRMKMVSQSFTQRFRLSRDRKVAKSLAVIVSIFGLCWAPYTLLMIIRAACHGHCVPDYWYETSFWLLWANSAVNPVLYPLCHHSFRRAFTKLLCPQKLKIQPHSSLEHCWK

| Compound | AC50 |
| --- | --- |
| CCCCCCCCCCCC[N+](C)(C)CCOc1ccccc1 | 12 µM |
| CC(C(O)c1ccc(O)cc1)N1CCC(Cc2ccccc2)CC1 (centres undefined) | > 30 µM |
| CCCOc1ccc(C(=O)OCCN(CC)CC)cc1N | 1.3 µM |
| CC(C)NNC(=O)c1ccncc1 | > 30 µM |
| CN1CCCC(n2nc(Cc3ccc(Cl)cc3)c3ccccc3c2=O)CC1 (centres undefined) | 16 µM |
| CN(C/C=C/c1ccccc1)Cc1cccc2ccccc12 | > 10 µM |
| O=P(O)(O)C(O)(Cc1cccnc1)P(=O)(O)O | > 30 µM |
| COc1ccc2c(c1)c(CC(=O)OCC(=O)O)c(C)n2C(=O)c1ccc(Cl)cc1 | > 30 µM |
| O=C(OCCN1CCOCC1)c1cccnc1Nc1cccc(C(F)(F)F)c1 [MORNIFLUMATE] | > 30 µM |
| CC(C)NCC1CCc2cc(CO)c([N+](=O)[O-])cc2N1 (centres undefined) | > 10 µM |
| O=C(O)Cc1cn(-c2ccccc2)nc1-c1ccc(Cl)cc1 | > 30 µM |
| CC(C)Cc1ccc(CC(=O)O)cc1 | > 30 µM |
| Cc1ccc(C(=O)c2cc(O)c(O)c([N+](=O)[O-])c2)cc1 | > 10 µM |
| CN1C(=O)CC(c2ccccc2)C1=O (centres undefined) [PHENSUXIMIDE] | > 10 µM |

###

Gastrin/cholecystokinin type B receptor (Homo sapiens) measurements of AC50, listed per entry. Also: assay procedure not described here.
Sequence (P32239 whole entry): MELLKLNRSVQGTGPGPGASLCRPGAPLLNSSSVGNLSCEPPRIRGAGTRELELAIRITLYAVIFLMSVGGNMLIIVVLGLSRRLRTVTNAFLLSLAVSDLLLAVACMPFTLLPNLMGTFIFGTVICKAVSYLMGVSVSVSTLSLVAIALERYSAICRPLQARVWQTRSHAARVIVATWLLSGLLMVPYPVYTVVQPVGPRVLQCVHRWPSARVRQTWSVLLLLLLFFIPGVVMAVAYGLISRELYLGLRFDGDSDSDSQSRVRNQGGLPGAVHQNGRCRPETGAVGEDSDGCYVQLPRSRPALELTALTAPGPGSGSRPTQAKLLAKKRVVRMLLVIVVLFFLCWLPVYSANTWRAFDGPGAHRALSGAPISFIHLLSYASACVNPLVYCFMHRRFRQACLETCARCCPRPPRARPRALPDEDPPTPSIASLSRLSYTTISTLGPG
Measure: AC50

| Compound | Readout Value |
| --- | --- |
| Cc1cccc(C)c1OCC(C)N (stereo not drawn) [MEXILETINE] | > 30 µM |
| CC(=O)N[C@H]1[C@H]([C@H](O)[C@H](O)CO)OC(C(=O)O)=C[C@@H]1N=C(N)N [ZANAMIVIR] | > 30 µM |
| COc1ccc2c(c1)c(CC(=O)OCC(=O)O)c(C)n2C(=O)c1ccc(Cl)cc1 [ACEMETACIN] | > 10 µM |
| CCCOc1ccc(C(=O)OCCN(CC)CC)cc1N [PROPARACAINE] | > 30 µM |
| C[C@]12CCC(=O)C=C1CC[C@@H]1[C@@H]2CC[C@@]2(C)[C@H]1CC[C@]2(C)O [METHYLTESTOSTERONE] | > 30 µM |
| COC(=O)N[C@H](C(=O)N[C@@H](Cc1ccccc1)[C@@H](O)CN(Cc1ccc(-c2ccccn2)cc1)NC(=O)[C@@H](NC(=O)OC)C(C)(C)C)C(C)(C)C [ATAZANAVIR] | > 30 µM |
| Cc1cccc(C)c1NC(=O)C1CCCCN1C (stereo not drawn) [MEPIVACAINE] | > 30 µM |
| O=C1NCCN1CCN1CCC(c2cn(-c3ccc(F)cc3)c3ccc(Cl)cc23)CC1 [SERTINDOLE] | > 30 µM |
| Cc1nc2ccc(CN(C)c3ccc(C(=O)N[C@@H](CCC(=O)O)C(=O)O)s3)cc2c(=O)[nH]1 [RALTITREXED] | > 10 µM |
| OCCN1CCN(CCCN2c3ccccc3C=Cc3ccccc32)CC1 [OPIPRAMOL] | > 30 µM |
| NC(CO)C(=O)NNCc1ccc(O)c(O)c1O (stereo not drawn) [BENSERAZIDE] | > 30 µM |
| CN(C)C(=O)OC1N=C(c2ccccc2)c2cc(Cl)ccc2N(C)C1=O (stereo not drawn) [CAMAZEPAM] | > 30 µM |
| COc1cc2c(cc1OC)C(=O)C(CC1CCN(Cc3ccccc3)CC1)C2 (stereo not drawn) [DONEPEZIL] | > 30 µM |
| CN1CCc2cccc3c2[C@H]1Cc1ccc(O)c(O)c1-3 [APOMORPHINE] | 23.4 µM |
| COC(=O)[C@@H]1CC2=CC(=O)CC[C@]2(C)[C@@]23O[C@@H]2C[C@@]2(C)[C@@H](CC[C@@]24CCC(=O)O4)[C@H]13 [EPLERENONE] | > 30 µM |
| O=C(CCCCCCC(=O)Nc1ccccc1)NO [VORINOSTAT] | > 30 µM |
| O=P(O)(O)C(O)(Cc1cccnc1)P(=O)(O)O [RISEDRONIC ACID] | > 30 µM |
| CN(CCCN1c2ccccc2CCc2ccccc21)CC(=O)c1ccc(Cl)cc1 [LOFEPRAMINE] | > 30 µM |

Cited source: ChEMBL document CHEMBL5291721
